All figures here come from PubChem BioAssay AID504339.

- test.system: Lysine-specific demethylase 4A (Homo sapiens)
- experiment.notes: qHTS Assay for Inhibitors of JMJD2A-Tudor Domain; further: nearly all actives have a fitted effect of over 50% in size
- condition.label: AlphaScreen JMJD2A-Tudor / H3K4me3 peptide binding; series mostly up to 114 µM
Hit rate of the full screen: of about 390,000 compounds, about 17,000 (4.4%) were called active. Roughly 8% stayed inconclusive and do not appear here. The call rests on the fitted dose curve; in most records, active means well fitted inhibition curve with a large enough effect; inconclusive means small, poorly fitted or top-dose-only effect; inactive means no such curve, though single readings can be large or run the other way. Many of the other results were omitted from the sample, so actives are more common in it than they were.
Tick one outcome: True (active), False (inactive)

The examples below pair each entry with its known result.
{"compound": "COc1ccc(CCNC(=O)c2nn(C)c3c2CSc2ccccc2-3)cc1OC", "cat": "False"}
{"compound": "Cc1c(C)n2c(SCC(=O)NC3CCCC3)nnc2[nH]c1=O", "cat": "True"}
{"compound": "CS(=O)(=O)N(CC(=O)NCc1ccco1)c1ccc2c(c1)OCO2", "cat": "False"}

Input: Which outcome did this test record for the compound CCCCNC(=O)c1ccc2c(c1)NC(=O)C(C(C)C)N2 (stereo not given) ?
Output: False

Input: Which outcome did this test record for the compound CCc1ccc(CN(Cc2ccco2)C(=O)c2ccccc2Cl)cc1 ?
Output: False

Input: Which outcome did this test record for the compound COc1ccc(-c2cc3ncccc3cn2)cc1 ?
Output: False

Input: Which outcome did this test record for the compound COc1ccc(CCNC(=O)c2ccc(-n3c(C)cc4c3CCCC4)cc2)cc1OC ?
Output: False

Input: Which outcome did this test record for the compound O=C(NCc1nnc(C(=O)Nc2ccc(C(F)(F)F)cc2Cl)o1)c1ccccc1 ?
Output: False

----------
- test.system: Lysine-specific demethylase 4A (Homo sapiens)
- experiment.notes: qHTS Assay for Inhibitors of JMJD2A-Tudor Domain; further: nearly all actives have a fitted effect of over 50% in size; further: potency means the concentration at half of the fitted maximal effect
- condition.label: AlphaScreen JMJD2A-Tudor / H3K4me3 peptide binding; series mostly up to 114 µM
Among all 390,000 compounds or so, about 17,000 (4.4%) were called active. Roughly 8% stayed inconclusive and do not appear here. The sample as a whole holds a higher share of actives than the screen did.
endpoint.label: Potency

Examples with answers:
{"molecule": "O=C(c1cn2ccccc2n1)N1CCc2c([nH]c3ccccc23)C1c1ccccn1 (centres undefined)", "test.system": "Lysine-specific demethylase 4A (Homo sapiens)", "data.value": "inactive"}
{"molecule": "COc1cccc(NC(=O)Nc2ccc3c(c2)N(C)C(=O)c2ccccc2S3)c1", "test.system": "Lysine-specific demethylase 4A (Homo sapiens)", "data.value": "inactive"}
{"molecule": "CC(C)(C)n1nnnc1C(c1ccccc1F)N1CCN(C(=O)c2ccco2)CC1 (centres undefined)", "test.system": "Lysine-specific demethylase 4A (Homo sapiens)", "data.value": "inactive"}
{"molecule": "Cc1cccc(N=Nc2c(C)[nH]n(-c3ccccc3)c2=O)c1", "test.system": "Lysine-specific demethylase 4A (Homo sapiens)", "data.value": "11.2 µM (active)"}
{"molecule": "Cc1ccc(N=Nc2c(C)[nH]n(-c3ccccc3)c2=O)cc1", "test.system": "Lysine-specific demethylase 4A (Homo sapiens)", "data.value": "6.31 µM (active)"}
{"molecule": "Cc1c(N=Nc2ccc(N(C)C)cc2)c(=O)n(-c2ccccc2)n1C", "test.system": "Lysine-specific demethylase 4A (Homo sapiens)", "data.value": "inactive"}

Input: Please give the measured Potency for this molecule: C=CCn1c(=S)[nH]c2scc(-c3ccco3)c2c1=O
Output: 28.2 µM (active)

Input: Please give the measured Potency for this molecule: Cc1[nH]n(-c2ccccc2)c(=O)c1CCOC(=O)c1ccc(C(F)(F)F)cc1
Output: inactive

Input: Please give the measured Potency for this molecule: O=C(CC(NCc1cccnc1)C(=O)O)Nc1ccc(O)cc1 (centres undefined)
Output: 25.1 µM (active)
